# assay-target: GABARAP K24Q/Y25H/R28K (recombinant, BLI) (human, UniProt O95166 1-117, K24Q | Y25H | R28K)
# experimental-protocol: BLI
Ends that are not written are not given here.
Reported Kd values for a set of binders

binder	Kd
SKDSSCDTDDFVMVPAQFPGDLVA (also: biotin, position not given here) [ULK1 LIR peptide (biotinylated, BLI)]	3.2 µM

Item PDSIDAHTFDFETIPHPNIEQTIH (also: biotin, position not given here) [FIP200 LIR peptide (biotinylated, BLI)] has what recorded Kd?
70.3 µM

The origin of these recorded values is paper PMC6499816.
